# measured on: T1, human CD73 (full length, on transfected CHOK1 cells) (human, UniProt P21589 27-549)
# T1 construct: whole, on cells; also called CHOK1-hCD73; hCD73
# T1 sequence (looked up): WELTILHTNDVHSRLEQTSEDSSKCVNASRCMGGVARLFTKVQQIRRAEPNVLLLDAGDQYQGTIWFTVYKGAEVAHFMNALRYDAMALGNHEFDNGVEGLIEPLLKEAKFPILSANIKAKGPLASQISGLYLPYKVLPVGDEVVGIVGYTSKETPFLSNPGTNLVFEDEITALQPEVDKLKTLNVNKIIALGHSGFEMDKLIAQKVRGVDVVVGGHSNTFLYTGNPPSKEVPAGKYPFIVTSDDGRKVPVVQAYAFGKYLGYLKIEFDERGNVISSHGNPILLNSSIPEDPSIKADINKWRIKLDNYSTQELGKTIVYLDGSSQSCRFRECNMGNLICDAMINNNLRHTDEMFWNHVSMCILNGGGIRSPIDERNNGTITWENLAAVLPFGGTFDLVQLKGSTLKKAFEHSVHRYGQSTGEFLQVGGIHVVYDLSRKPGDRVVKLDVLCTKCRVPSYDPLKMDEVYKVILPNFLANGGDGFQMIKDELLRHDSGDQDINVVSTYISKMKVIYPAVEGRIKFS
# run description: FACS on CHOK1-hCD73 cells
List of EC50 values.

// known answers, use as guide
binder	EC50
mAb032 (clone 56F12H8), murine anti-CD73 antibody (antibody, V domains shown, Purified from hybridoma supernatant) VH: EVQLVESGGDLVKPGGSLKLSCAASGFTFSTHGMSWVRQTPDKRLEWVAIISSDRSDIDYTDNVKGRFTISRDNGKNTLYLQMSSLKSEDTAIYHCARHRGYDGFYYAMDYWGQGTSVTVSS VL: DILMTQSPSSLTVTAGEKVTMSCRSSQSLLNSGNQKNYLTWYQQRPGRPPKLLIYWASTRISGVPDRFAGSGSGTDFTLTISIVQAEDLAVYYCQNDYSYPLTFGSGTKLELR	2.6 nM
mAb065 (clone 125A4E10), murine anti-CD73 antibody (antibody, V domains shown, Purified from hybridoma supernatant) VH: EVQLQQSGPELVKPGASVKISCKASGYTFTDYYMNWVKQSHGKSLEWIGNINPNNGDTNYNQKFKGKATLTVDKSSSTASMELRSLTSEDSAVYYCANSGYYYFDYWGQGTTLTVSS VL: DIVMTQSPSSLTVTAGEKVTMSCKSSQSLLNSGNQKNYLTWYQQKPGQPPKVLIYWASTRESGVPDRFTGSGSGTDFTLTISSVQAEDLAVYYCQNDYSYPPTFGGGTNLEIK	1.1 nM
mAb030 (clone 42A5A7), murine anti-CD73 antibody (antibody, V domains shown, Purified from hybridoma supernatant; also called antibody 030) VH: DIQLQESGPGLVKPSQSLSLTCSVTGYSITSRYYWNWIRQFPGNKLEWMGYITYDDNNNYNPSLKNRISITRDTSKNQFFLKLNSVTPEDTATYYCARGGWDPFLYWGQGTLVTVSA VL: DIQMTQSPASLSASVGETVTITCRASDNIYSYLAWYQQKQGKSLQLLVDSAKNLGEGVPSRFSGSGSGTQFYLKINSLQPEDFGVYYCQHYYGTPFTFGGGTKLELK	0.9 nM
mAb038 (clone 69C9E12), murine anti-CD73 antibody (antibody, V domains shown, Purified from hybridoma supernatant) VH: QVQLQQPGTELVNPGASVKLSCKASGYTFTSYWMHWVKQRPGQGLEWIGNINPSNGGTHYNEKFNNKATLTVDKSSSTAYMQLSSLTSEDSAVFYCARGDYAYDWYFTVWGTGTTVTVSS VL: DIVLTQSPASLAVSLGQRAIISCKASQSVSFAGTGLMHWYQQKPGQQPKLLIYRVSNLEAGIPTRFSGSGSRTDFTLNIHPVEEDDAATYYCQQNREFPWTFGGGTKLEIK	0.4 nM

Prompt line: Field request: EC50 | item: mAb042 (clone 77B9A3), murine anti-CD73 antibody (antibody, V domains shown, Purified from hybridoma supernatant) VH: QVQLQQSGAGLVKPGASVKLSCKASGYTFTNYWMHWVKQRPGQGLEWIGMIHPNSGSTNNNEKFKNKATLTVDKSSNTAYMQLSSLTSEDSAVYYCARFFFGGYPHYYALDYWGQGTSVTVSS VL: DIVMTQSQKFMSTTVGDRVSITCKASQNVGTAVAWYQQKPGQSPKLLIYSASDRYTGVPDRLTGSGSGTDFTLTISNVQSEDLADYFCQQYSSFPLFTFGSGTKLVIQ
Response line: > 10 nM

Prompt line: Next entry: mAb036 (clone 66H6C12), murine anti-CD73 antibody (antibody, V domains shown, Purified from hybridoma supernatant) VH: QVQLQQSGAEVVKPGASVKISCKASGYVFSSYWINWVKQRPGKGLEWIGKIFPGNGDTDYNGNFKGKATLTADKSSSTAYMQLSSLTSEDSAVYFCAGFADWGQGTLVTVSA VL: DIQMTQSPSSLSASLGERVSLTCRASQDIGERLIWLQQEPDGTFKRLIYATSSLDSGVPKRFSGSSSGSDYSLTISRLESEDFVDYYCLQYASSPYTFGGGTKLEIK
Response line: 0.3 nM

Prompt line: Next entry: mAb041 (clone 71E10B3), murine anti-CD73 antibody (antibody, V domains shown, Purified from hybridoma supernatant) VH: QVQLQQPGTELVKPGASVKLSCKASGYTFTSYWMHWVKQRPGQGLEWIGNINPSNGGTNYNQKFKSKATLTVDKSSNTASMQLSSLTSEDSAVYYCARGDYGYDWYLDVWGTGTTVTVSS VL: DIVLTQSPASLAVSLGQRAIISCKASQSVSFAGPSLMHWYQQKPGQQPKLLIYRTSNLEAGVPTRFSGSGSGTDFTLNIHPVEEDDAATYYCQQNREFPWTFGGGTKLEIK
Response line: 2.9 nM

Prompt line: Next entry: mAb020 (clone 24D6B4), murine anti-CD73 antibody (antibody, V domains shown, Purified from hybridoma supernatant) VH: EVQLQQSGPELVKPGASVKIPCKASGYTFTDYNMDWVKQRHGKSLEWIGDINPNNGGTVYNQKFKGKATLTVDKSSNTAYMELRSLTSEDTAVYYCARISGTGYWYFDVWGTGTTVTVSS VL: DIQMTQSPASLSVSVGETVTITCRASENIYSNLAWYQQKQGKSPQLLVYGATNLADGVPSRFSGSDSGTQYSLKINSLQSEDFGSYYCQHFWGTPWTFGGGTKLEIK
Response line: 1.8 nM

Prompt line: Next entry: mAb044 (clone 80H7D6), murine anti-CD73 antibody (antibody, V domains shown, Purified from hybridoma supernatant) VH: EVKLVESGGGLVQPGGSLRLSCAASGFTFTDYYMSWVRQPPGKALEWLGFIRNKADGSTTEYSASVKGRFTISRDNSQSILYLQMNALRPEDSATYYCTRSPIYFDNWYFDVWGTGTTVTVSS VL: DIVMSQSPSSLAVSVGEKVTMTCKSSQSLLYSNNQKNYLAWYQQKPGQSPKLLIYWASTRESGVPDRFTGSGSGTDFTLTLSSVKAEDLAVYYCQQYYSYPFTFGSGTKLEIK
Response line: 1.6 nM

Prompt line: Next entry: mAb034 (clone 60G1C8), murine anti-CD73 antibody (antibody, V domains shown, Purified from hybridoma supernatant) VH: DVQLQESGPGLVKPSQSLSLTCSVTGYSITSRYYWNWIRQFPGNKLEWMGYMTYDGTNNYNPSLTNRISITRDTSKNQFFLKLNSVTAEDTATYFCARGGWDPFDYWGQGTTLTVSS VL: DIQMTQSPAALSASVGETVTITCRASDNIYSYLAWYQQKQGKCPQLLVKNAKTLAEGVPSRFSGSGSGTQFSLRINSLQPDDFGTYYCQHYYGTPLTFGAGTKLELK
Response line: > 10 nM
